Where do the numbers come from? From paper PMC9191647.

Molecular target: mouse 5-HT2A (m5-HT2A) (Mus musculus)
Sequence (P35363 whole entry): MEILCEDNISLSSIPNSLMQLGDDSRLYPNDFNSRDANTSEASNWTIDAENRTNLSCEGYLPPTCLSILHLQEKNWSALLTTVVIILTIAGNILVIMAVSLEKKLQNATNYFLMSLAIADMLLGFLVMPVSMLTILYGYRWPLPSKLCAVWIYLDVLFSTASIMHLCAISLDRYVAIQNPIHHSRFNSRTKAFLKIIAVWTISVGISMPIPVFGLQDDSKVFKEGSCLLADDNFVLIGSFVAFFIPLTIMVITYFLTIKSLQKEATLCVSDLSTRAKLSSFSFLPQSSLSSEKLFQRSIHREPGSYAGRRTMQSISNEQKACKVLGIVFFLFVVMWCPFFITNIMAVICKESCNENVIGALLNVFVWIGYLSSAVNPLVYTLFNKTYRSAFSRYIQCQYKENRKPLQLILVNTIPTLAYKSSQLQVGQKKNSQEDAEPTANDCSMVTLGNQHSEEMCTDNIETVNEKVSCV
Assay: Gq-mediated calcium flux in Flp-In T-REx 293 cells
Format: cell-based
Details: pEC50 ± SEM, Ca^2+ flux
experimental_endpoint: EC50 (nM)
Give the quantity in nM, number only.

Query string: What EC50 value was documented for this compound, CCN(CC)C(=O)[C@@H]1C=C2c3cccc4c3c(cn4C(C)=O)C[C@H]2N(C)C1 [ALD-52, 1-Acetyl-D-lysergic acid diethylamide] ?
Result string: 11.5

###

Biological target: α1B (Homo sapiens, UniProt P35368)
Sequence (P35368 whole entry): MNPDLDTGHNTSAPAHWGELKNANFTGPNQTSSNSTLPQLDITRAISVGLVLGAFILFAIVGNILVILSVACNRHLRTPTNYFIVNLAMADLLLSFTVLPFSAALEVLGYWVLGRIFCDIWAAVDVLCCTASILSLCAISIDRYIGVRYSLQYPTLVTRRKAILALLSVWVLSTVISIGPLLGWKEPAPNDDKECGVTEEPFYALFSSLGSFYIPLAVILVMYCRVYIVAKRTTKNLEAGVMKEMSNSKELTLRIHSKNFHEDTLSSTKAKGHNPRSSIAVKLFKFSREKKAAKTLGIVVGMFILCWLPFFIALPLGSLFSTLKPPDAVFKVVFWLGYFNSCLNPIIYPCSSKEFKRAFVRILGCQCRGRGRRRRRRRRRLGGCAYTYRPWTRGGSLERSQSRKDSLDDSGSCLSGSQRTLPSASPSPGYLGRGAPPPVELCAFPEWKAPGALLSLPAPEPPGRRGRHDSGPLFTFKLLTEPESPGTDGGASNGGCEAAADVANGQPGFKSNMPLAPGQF
pKi: −log10 of the molar value.
experimental_endpoint: pKi

Query string: Kindly state the measured pKi obtained for CCCC(=O)n1cc2c3c(cccc31)C1=C[C@@H](C(=O)N(CC)CC)CN(C)[C@@H]1C2 [1B-LSD, 1-butanoyl-D-lysergic acid diethylamide] with α1B (Homo sapiens, UniProt P35368).
Result string: < 5.00

###

Molecular target: 5-HT7A (Homo sapiens, UniProt P34969)
Sequence (P34969 1-445 isoform P34969-2): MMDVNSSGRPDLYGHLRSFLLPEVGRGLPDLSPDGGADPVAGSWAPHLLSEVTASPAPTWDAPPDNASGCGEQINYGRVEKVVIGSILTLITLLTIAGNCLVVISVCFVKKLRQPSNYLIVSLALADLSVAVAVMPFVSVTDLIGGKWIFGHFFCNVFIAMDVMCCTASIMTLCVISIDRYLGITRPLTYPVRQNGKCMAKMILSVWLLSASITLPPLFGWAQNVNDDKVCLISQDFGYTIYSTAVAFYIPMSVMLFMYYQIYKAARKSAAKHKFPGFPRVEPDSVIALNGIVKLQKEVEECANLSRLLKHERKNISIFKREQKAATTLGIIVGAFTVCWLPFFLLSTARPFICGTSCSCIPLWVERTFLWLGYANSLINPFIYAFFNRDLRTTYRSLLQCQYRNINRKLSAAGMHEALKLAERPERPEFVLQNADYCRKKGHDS
experimental_endpoint: Ki (µM)
// return numeric value only (unit: µM, not printed)

Query string: Record lookup: for 5-HT7A (Homo sapiens, UniProt P34969), what Ki belongs to CCCC(=O)n1cc2c3c(cccc31)C1=C[C@@H](C(=O)N(CC)CC)CN(C)[C@@H]1C2 [1B-LSD, 1-butanoyl-D-lysergic acid diethylamide] ?
Result string: 0.554

###

Biological target: α2A (Homo sapiens, UniProt P08913)
Sequence (P08913 1-465): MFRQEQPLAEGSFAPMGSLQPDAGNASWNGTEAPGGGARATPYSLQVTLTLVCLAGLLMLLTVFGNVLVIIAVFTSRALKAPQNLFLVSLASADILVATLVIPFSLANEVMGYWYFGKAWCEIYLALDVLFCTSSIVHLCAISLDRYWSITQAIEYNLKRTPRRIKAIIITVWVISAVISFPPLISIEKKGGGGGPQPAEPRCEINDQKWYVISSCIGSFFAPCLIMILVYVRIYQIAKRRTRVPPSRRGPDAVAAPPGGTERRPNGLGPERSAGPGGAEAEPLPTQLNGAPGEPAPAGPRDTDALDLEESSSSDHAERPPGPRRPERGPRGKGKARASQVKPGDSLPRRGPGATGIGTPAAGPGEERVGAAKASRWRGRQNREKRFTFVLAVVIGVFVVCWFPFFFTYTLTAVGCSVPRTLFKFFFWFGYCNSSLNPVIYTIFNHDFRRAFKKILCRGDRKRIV
experimental_endpoint: Ki (nM)
Write down the numeric answer in nM and omit the unit.

Query string: // returns reported Ki for input CCCC(=O)n1cc2c3c(cccc31)C1=C[C@@H](C(=O)N(CC)CC)CN(C)[C@@H]1C2 [1B-LSD, 1-butanoyl-D-lysergic acid diethylamide]
Result string: 537

###

Target: 5-HT1D (Homo sapiens, UniProt P28221)
Sequence (P28221 whole entry): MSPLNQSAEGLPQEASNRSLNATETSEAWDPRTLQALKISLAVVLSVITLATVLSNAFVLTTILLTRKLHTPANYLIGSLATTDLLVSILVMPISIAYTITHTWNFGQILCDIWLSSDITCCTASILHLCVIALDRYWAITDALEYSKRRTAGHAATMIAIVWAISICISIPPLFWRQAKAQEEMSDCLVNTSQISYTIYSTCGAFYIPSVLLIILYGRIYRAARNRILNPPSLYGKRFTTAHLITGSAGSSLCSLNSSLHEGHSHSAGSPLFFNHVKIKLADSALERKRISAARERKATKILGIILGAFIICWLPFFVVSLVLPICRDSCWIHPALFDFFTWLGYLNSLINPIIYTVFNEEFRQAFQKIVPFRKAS
experimental_endpoint: pKi
For clarity, pKi is expressed as the negative log10 of concentration in mol/L.

Query string: Give the reported pKi for CCCC(=O)n1cc2c3c(cccc31)C1=C[C@@H](C(=O)N(CC)CC)CN(C)[C@@H]1C2 [1B-LSD, 1-butanoyl-D-lysergic acid diethylamide] (system: 5-HT1D (Homo sapiens, UniProt P28221)).
Result string: 6.53

###

Biological target: α1A (Homo sapiens, UniProt P35348)
Sequence (P35348 1-466): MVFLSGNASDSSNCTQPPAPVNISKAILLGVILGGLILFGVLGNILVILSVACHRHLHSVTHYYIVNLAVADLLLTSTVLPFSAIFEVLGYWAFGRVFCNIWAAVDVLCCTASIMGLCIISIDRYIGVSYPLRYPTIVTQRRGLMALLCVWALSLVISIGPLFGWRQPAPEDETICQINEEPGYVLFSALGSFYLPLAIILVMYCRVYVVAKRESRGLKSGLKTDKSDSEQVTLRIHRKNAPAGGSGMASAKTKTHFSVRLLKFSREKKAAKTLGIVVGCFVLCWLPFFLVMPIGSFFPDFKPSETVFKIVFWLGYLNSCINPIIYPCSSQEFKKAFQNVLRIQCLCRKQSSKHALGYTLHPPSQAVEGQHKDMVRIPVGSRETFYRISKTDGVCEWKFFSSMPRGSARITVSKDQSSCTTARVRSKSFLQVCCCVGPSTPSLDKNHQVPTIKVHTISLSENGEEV
pKi: −log10 of the molar value.
experimental_endpoint: pKi

Query string: Quick one: pKi for CCCC(=O)n1cc2c3c(cccc31)C1=C[C@@H](C(=O)N(CC)CC)CN(C)[C@@H]1C2 [1B-LSD, 1-butanoyl-D-lysergic acid diethylamide] ?
Result string: < 5.00
